Test system: Bacillus cereus
PROTOCOL_TEXT: Antibacterial activity against Bacillus cereus NCIM 2156 assessed as reduction in bacterial growth incubated for 18 to 24 hrs by broth microdilution method
Format: functional
RUN_CONDITIONS: time 18-24 hrs
PROPERTY: MIC (µg/mL)
# unit: µg/mL | format: bare number

Example compounds with recorded MIC:
>>> observed_result("O=C(O)c1cn(C2CC2)c2cc(N3CCNCC3)c(F)cc2c1=O")
3.12
>>> observed_result("NC(=O)NCn1nc(NCCCNc2ccnc3cc(Cl)ccc23)n(N)c1=S")
3.12
>>> observed_result("Nn1c(NCCCNc2ccnc3cc(Cl)ccc23)nn(CN2CCNCC2)c1=S")
3.12

Next compound, MIC to be filled in.
In: Notebook entry, Bacillus cereus assay: MIC of CC(=O)NCn1nc(NCCCNc2ccnc3cc(Cl)ccc23)n(N)c1=S = ?
Out: 6.25

* * *

Entries annotated with measured MIC80
System: Candida albicans
PROTOCOL_TEXT: Antifungal activity against Candida albicans SC5314 assessed as reduction in fungal growth incubated for 24 hrs by NCCLS based assay
Type: functional

Example compounds with recorded MIC80:
>>> observed_result("C[C@@H](OCc1cc(-c2c(F)cc(F)cc2F)no1)[C@](O)(Cn1cncn1)c1ccc(F)cc1F")
"0.125 µg/mL"
>>> observed_result("C[C@@H](OCc1cc(-c2ccc(F)cc2)no1)[C@](O)(Cn1cncn1)c1ccc(F)cc1F")
"0.031 µg/mL"

In: State the recorded MIC80 for this entry: Cc1ccc(-c2cc(CO[C@H](C)[C@](O)(Cn3cncn3)c3ccc(F)cc3F)on2)cc1
Out: 0.25 µg/mL

In: State the recorded MIC80 for this entry: OC(Cn1cncn1)(Cn1cncn1)c1ccc(F)cc1F
Out: 0.5 µg/mL

* * *

System: Candida albicans
PROTOCOL_TEXT: Antifungal activity against Candida albicans ATCC 90028 assessed as growth inhibition incubated for 24 hrs
Type: functional
PROPERTY: growth inhibition (GI) (%)
# unit: % | format: bare number

Example molecules with recorded growth inhibition (GI):
>>> observed_result("CCCNC(=O)c1nnn(-c2ccc(Br)cc2)c1C")
13.2
>>> observed_result("CCCNC(=O)c1nnn(-c2ccc(CC)cc2)c1C")
14.1
>>> observed_result("[N-]=[N+]=Nc1ccc(-n2cc(Cn3c(=O)sc4cc(Br)ccc43)nn2)c(Cl)c1")
63.7

In: State the recorded growth inhibition (GI) for this entry: CCCCNC(=O)c1nnn(-c2ccc(C)cc2)c1CCC
Out: 21.2

In: State the recorded growth inhibition (GI) for this entry: CCCCNC(=O)c1nnn(-c2ccc(Br)cc2)c1C
Out: 63.7

* * *

Entries annotated with measured diameter of the inhibition zone (DIZ)
System: Escherichia coli
PROTOCOL_TEXT: Antimicrobial activity against Escherichia coli assessed as diameter of inhibition zone incubated for 24 hrs by disc-diffusion method
Format: functional
# unit: mm | format: bare number

Example compounds with recorded diameter of the inhibition zone (DIZ):
>>> observed_result("COc1cc(/C=N/n2c(-c3ccc(Cl)cc3Cl)n[nH]c2=S)ccc1O")
3
>>> observed_result("Sc1nnc(-c2ccc(Cl)cc2)n1/N=C/c1ccco1")
4
>>> observed_result("COc1cc(/C=N/n2c(-c3ccc(Cl)cc3)n[nH]c2=S)ccc1O")
4

Next compound, diameter of the inhibition zone (DIZ) to be filled in.
In: State the recorded diameter of the inhibition zone (DIZ) for this entry: S=c1[nH]nc(-c2ccc(Cl)cc2Cl)n1/N=C/c1ccco1
Out: 3

* * *

Tested on: Rhizopus
PROTOCOL_TEXT: Antifungal activity against Rhizopus assessed as inhibition of fungal growth
Type: functional
Entries annotated with measured MIC

Example molecules with recorded MIC:
>>> observed_result("COc1cc(N2CCC(c3n[nH]c(=S)n3-c3cccc(C(F)(F)F)c3)CC2)ccc1Cl")
"8 µg/mL"
>>> observed_result("C[C@@H]1[C@H](O)[C@@H](C)/C=C/C=C/C=C/C=C/C=C/C=C/C=C/[C@H](O[C@@H]2O[C@H](C)[C@@H](O)[C@H](N)[C@@H]2O)C[C@@H]2O[C@](O)(C[C@@H](O)C[C@@H](O)[C@H](O)CC[C@@H](O)C[C@@H](O)CC(=O)O[C@H]1C)C[C@H](O)[C@H]2C(=O)O")
"16 µg/mL"
>>> observed_result("COc1cc(N2CCC(c3n[nH]c(=S)n3-c3ccc(Cl)cc3)CC2)ccc1Cl")
"8 µg/mL"
>>> observed_result("COc1cc(N2CCC(c3n[nH]c(=S)n3-c3cc(Cl)cc(Cl)c3)CC2)ccc1Cl")
"32 µg/mL"

Next molecule, MIC to be filled in.
In: Notebook entry, Rhizopus assay: MIC of COc1cc(N2CCC(c3n[nH]c(=S)n3-c3cccc(Cl)c3)CC2)ccc1Cl = ?
Out: 8 µg/mL

* * *

Test system: Staphylococcus aureus
PROTOCOL_TEXT: Antibacterial activity against Staphylococcus aureus assessed as diameter of inhibition zone incubated for 24 hrs by well diffusion assay
Format: functional
Values of diameter of the inhibition zone (DIZ) greater than or equal to 20 mm map to Met; values below map to Not met.

Solved entries (count: 3):
>>> classification("Cc1c(-c2cc(-c3ccccn3)nc(S)n2)nnn1-c1ccc(-n2nnc(-c3cc(-c4ccccn4)nc(S)n3)c2C)cc1")
"Met"
>>> classification("Cc1c(-c2cc(-c3c[nH]c4ccccc34)nc(S)n2)nnn1-c1ccc(-n2nnc(-c3cc(-c4c[nH]c5ccccc45)nc(S)n3)c2C)cc1")
"Met"
>>> classification("Cc1c(C(=O)/C=C/c2c[nH]c3ccccc23)nnn1-c1ccc(-n2nnc(C(=O)/C=C/c3c[nH]c4ccccc34)c2C)cc1")
"Not met"

In: Assess whether reported diameter of the inhibition zone (DIZ) for Cc1c(C(=O)/C=C/c2ccccn2)nnn1-c1ccc(-n2nnc(C(=O)/C=C/c3ccccn3)c2C)cc1 sits at 20 mm or higher.
Out: Met

In: Assess whether reported diameter of the inhibition zone (DIZ) for Cc1c(C(=O)/C=C/c2cccnc2)nnn1-c1ccc(-n2nnc(C(=O)/C=C/c3cccnc3)c2C)cc1 sits at 20 mm or higher.
Out: Not met

In: Assess whether reported diameter of the inhibition zone (DIZ) for Cc1c(-c2cc(-c3c[nH]c4ccccc34)nc(NN)n2)nnn1-c1ccc(-n2nnc(-c3cc(-c4c[nH]c5ccccc45)nc(NN)n3)c2C)cc1 sits at 20 mm or higher.
Out: Met

In: Assess whether reported diameter of the inhibition zone (DIZ) for Cc1c(C(=O)/C=C/c2ccncc2)nnn1-c1ccc(-n2nnc(C(=O)/C=C/c3ccncc3)c2C)cc1 sits at 20 mm or higher.
Out: Not met

In: Assess whether reported diameter of the inhibition zone (DIZ) for Cc1c(-c2cc(-c3c[nH]c4ccccc34)[nH]n2)nnn1-c1ccc(-n2nnc(-c3cc(-c4c[nH]c5ccccc45)[nH]n3)c2C)cc1 sits at 20 mm or higher.
Out: Not met

* * *

Tested on: Aspergillus niger
PROTOCOL_TEXT: Antifungal activity against Aspergillus niger assessed as fungal growth inhibition
Assay type: functional
PROPERTY: MIC (µg/mL)
# unit: µg/mL | format: bare number

>>> observed_result("OC(Cn1cncn1)(Cn1cncn1)c1ccc(F)cc1F")
20.4

Next compound, MIC to be filled in.
In: State the recorded MIC for this entry: CCCCCCCCCCCCCCCc1nnc(S)n1/N=C\c1ccc([N+](=O)[O-])cc1
Out: 27.1

* * *

Test system: Staphylococcus aureus
PROTOCOL_TEXT: Antibacterial activity against Staphylococcus aureus assessed as inhibition of bacterial growth by microdilution method
Format: functional
Entries annotated with measured MIC
# unit: µg/mL | format: bare number

Example compounds with recorded MIC:
>>> observed_result("Fc1cc(-n2cc(COc3cc(Cl)cc(Cl)c3)nn2)ccc1N1CCOCC1")
6.25
>>> observed_result("O=C1CS(=O)(=O)c2ccccc2N1Cc1cn(-c2ccc(N3CCOCC3)c(F)c2)nn1")
12.5
>>> observed_result("Fc1cc(-n2cc(CN3c4ccccc4Sc4ccccc43)nn2)ccc1N1CCOCC1")
12.5

In: State the recorded MIC for this entry: Fc1ccccc1OCc1cn(-c2ccc(N3CCOCC3)c(F)c2)nn1
Out: 12.5

* * *

Test system: Bacillus subtilis
PROTOCOL_TEXT: Antibacterial activity against Bacillus subtilis MTCC 441 assessed as reduction in bacterial growth
Assay type: functional
PROPERTY: MIC (µg/mL)
# unit: µg/mL | format: bare number

In: State the recorded MIC for this entry: C=CCCC1CC(=O)N1Cc1cn(-c2cccc([N+](=O)[O-])c2)nn1 (stereo unspecified)
Out: 1.25

In: State the recorded MIC for this entry: CC1(C)S[C@@H]2[C@H](NC(=O)[C@H](N)c3ccccc3)C(=O)N2[C@H]1C(=O)O
Out: 0.5

In: State the recorded MIC for this entry: C=CCCC1CC(=O)N1Cc1cn(-c2ccc(Cl)cc2)nn1 (stereo unspecified)
Out: 1.25

In: State the recorded MIC for this entry: C=CCCC1CC(=O)N1Cc1cn(-c2ccc([N+](=O)[O-])cc2)nn1 (stereo unspecified)
Out: 1.25

In: State the recorded MIC for this entry: C=CCCC1CC(=O)N1Cc1cn(-c2cccc(Cl)c2)nn1 (stereo unspecified)
Out: 1.25

In: State the recorded MIC for this entry: C=CCCC1CC(=O)N1Cc1cn(-c2ccc(OC)cc2)nn1 (stereo unspecified)
Out: 1.25
